- Tested on: DLD-1 BRCA2−/− cells
- METHOD SUMMARY: Homologous recombination synthetic lethal inhibition of proliferation, DLD-1 BRCA2-/- (Cell Titre Glo 3D)
- Type: cell-based
- ASSAY CONDITIONS: Homo sapiens, DLD-1, first proliferation column (c5); DLD-1 BRCA2-/-; read-out: POLQ PD Prolif Lumin (converted)
MEASUREMENT KIND: IC50 (nM)
Numbers only; they are read as nM.

Some solved cases for reference:
COMPOUND: CC1(Oc2ncnc3c2nc(-c2cccc(OCCCCCCC(=O)O)c2Cl)n3Cc2cccc(Cl)c2)CC1
IC50, nM: 31.6
//
COMPOUND: Cc1ccnc(Cn2c(-c3ccc(N4CCNC4=O)cc3Cl)nc3c(OC4(C)CC4)ncnc32)c1
IC50, nM: 398

Name the reported IC50 value associated with the compound `CNC(=O)COc1cccc(-c2nc3c(OC4(C)CC4)ncnc3n2Cc2cc(C)ccn2)c1Cl`
158

Please give the measured IC50 for this compound: `Cc1ccnc(Cn2c(-c3ccc(OCC(=O)N4C[C@H]5C[C@@H](C4)O5)cc3Cl)nc3c(OC4(C)CC4)ncnc32)c1`
316
